What log10 of IC50 was measured for each of the following?
# System: MDA-MB-231
# assay info: Cytotoxicity against human MDA-MB-231 cells assessed as cell growth inhibition after 48 hrs by MTT assay
# Format: functional, cell-based
# recorded conditions: MDA-MB-231, 48 h
Please note: log10 values; quantity IC50; unit µM.

## Task log10 of IC50 of Cc1ccc2c(c1)C1(Nc3ccccc3-n3cccc31)C(=O)N2 (stereo not given) on MDA-MB-231?
## Result 1.34

## Task Form: Entry = O=C1Nc2c(F)cccc2C12Nc1ccccc1-n1cccc12 (stereo not given) | System = MDA-MB-231 | log10 of IC50 = ____
## Result 1.20

## Task Notebook: pull reported log10 of IC50 for MDA-MB-231, entry COc1ccc2c(c1)C1(Nc3ccccc3-n3cccc31)C(=O)N2 (stereo not given)
## Result 1.20

## Task Give MDA-MB-231 log10 of IC50 for COc1cccc2c1C(=O)c1c(O)c3c(c(O)c1C2=O)C[C@@](O)(C(=O)CO)C[C@@H]3O[C@H]1C[C@H](N)[C@H](O)[C@H](C)O1 [DOXORUBICIN]
## Result 0.22

## Task Request: log10 of IC50, test system MDA-MB-231, entry O=C1Nc2ccccc2C12Nc1ccccc1-n1cccc12 (stereo not given)
## Result 0.95

## Task Short answer please: log10 of IC50, MDA-MB-231, entry O=C1N(Cc2ccccc2)c2ccccc2C12Nc1ccccc1-n1cccc12 (stereo not given)
## Result 1.42

## Task Reported log10 of IC50 for MDA-MB-231, given O=C1Nc2ccc(Br)cc2C12Nc1ccccc1-n1cccc12 (stereo not given) ?
## Result 1.47

## Task Give the reported log10 of IC50 for O=C1Nc2ccc(I)cc2C12Nc1ccccc1-n1cccc12 (stereo not given) (system: MDA-MB-231).
## Result 1.43

## Task I'm curious: which log10 of IC50 was measured for O=C1N(Cc2ccccc2)c2ccc(Br)cc2C12Nc1ccccc1-n1cccc12 (stereo not given) tested on MDA-MB-231?
## Result 1.37

## Task Lab note: need log10 of IC50 for O=C1Nc2ccc(F)cc2C12Nc1ccccc1-n1cccc12 (stereo not given) on MDA-MB-231, anyone have it?
## Result 1.50
